Give measured Activity for each item. Keep answers brief.
system.under.test: Toll-like receptor 1/2 (Mus musculus) (UniProt Q9QUN7+Q9EPQ1)
assay.summary: Agonist activity at TLR1/TLR2 in wild type C57BL/6J mouse macrophages assessed as stimulation of TNF alpha release measured for 4 hrs by ELISA based assay relative to diprovocim-1
Assay type: cell-based
Parameters: concentration or dose not given beside the values
condition.context: Macrophage, filed as agonist

Worked examples, 5 compounds total:
[
  {
    "smiles.representation": "CC(C)(C)OC(=O)N[C@@H](CCC(=O)OCc1ccccc1)C(=O)OCCCCCCCCCCCCNC(=O)[C@@H]1CN(C(=O)c2ccc(C(=O)N3C[C@@H](C(=O)N[C@H]4C[C@@H]4c4ccccc4)[C@H](C(=O)N[C@H]4C[C@@H]4c4ccccc4)C3)cc2)C[C@H]1C(=O)N[C@H]1C[C@@H]1c1ccccc1",
    "Activity": "210%"
  },
  {
    "smiles.representation": "[N-]=[N+]=NCC(=O)OCCCCCCCCCCCCNC(=O)[C@@H]1CN(C(=O)c2ccc(C(=O)N3C[C@@H](C(=O)N[C@H]4C[C@@H]4c4ccccc4)[C@H](C(=O)N[C@H]4C[C@@H]4c4ccccc4)C3)cc2)C[C@H]1C(=O)N[C@H]1C[C@@H]1c1ccccc1",
    "Activity": "120%"
  },
  {
    "smiles.representation": "C#CCN(C)CC(=O)OCCCCCCCCCCCCNC(=O)[C@@H]1CN(C(=O)c2ccc(C(=O)N3C[C@@H](C(=O)N[C@H]4C[C@@H]4c4ccccc4)[C@H](C(=O)N[C@H]4C[C@@H]4c4ccccc4)C3)cc2)C[C@H]1C(=O)N[C@H]1C[C@@H]1c1ccccc1",
    "Activity": "100%"
  },
  {
    "smiles.representation": "Nc1ccc(CCCCCCCCNC(=O)[C@@H]2CN(C(=O)c3ccc(C(=O)N4C[C@@H](C(=O)N[C@H]5C[C@@H]5c5ccccc5)[C@H](C(=O)N[C@H]5C[C@@H]5c5ccccc5)C4)cc3)C[C@H]2C(=O)N[C@H]2C[C@@H]2c2ccccc2)cc1",
    "Activity": "250%"
  },
  {
    "smiles.representation": "CC(C)(C)OC(=O)NCCOCCOCCOCCOCCC(=O)OCCCCCCCCCCCCNC(=O)[C@@H]1CN(C(=O)c2ccc(C(=O)N3C[C@@H](C(=O)N[C@H]4C[C@@H]4c4ccccc4)[C@H](C(=O)N[C@H]4C[C@@H]4c4ccccc4)C3)cc2)C[C@H]1C(=O)N[C@H]1C[C@@H]1c1ccccc1",
    "Activity": "150%"
  }
]

Hi there! I need Activity for each item below, if you can.
1. O=C(CNC(=O)C(F)(F)F)OCCCCCCCCCCCCNC(=O)[C@@H]1CN(C(=O)c2ccc(C(=O)N3C[C@@H](C(=O)N[C@H]4C[C@@H]4c4ccccc4)[C@H](C(=O)N[C@H]4C[C@@H]4c4ccccc4)C3)cc2)C[C@H]1C(=O)N[C@H]1C[C@@H]1c1ccccc1
2. CC(C)(C)OC(=O)CCOCCOCCOCCNC(=O)CCCCCCCCCCCNC(=O)[C@@H]1CN(C(=O)c2ccc(C(=O)N3C[C@@H](C(=O)N[C@H]4C[C@@H]4c4ccccc4)[C@H](C(=O)N[C@H]4C[C@@H]4c4ccccc4)C3)cc2)C[C@H]1C(=O)N[C@H]1C[C@@H]1c1ccccc1
3. CC(C)(C)OC(=O)N[C@@H](Cc1ccccc1)C(=O)OCCCCCCCCCCCCNC(=O)[C@@H]1CN(C(=O)c2ccc(C(=O)N3C[C@@H](C(=O)N[C@H]4C[C@@H]4c4ccccc4)[C@H](C(=O)N[C@H]4C[C@@H]4c4ccccc4)C3)cc2)C[C@H]1C(=O)N[C@H]1C[C@@H]1c1ccccc1

OUTPUT:
["100%", "140%", "220%"]
